- Test system: Trogoderma granarium
- protocol-summary: Antifeedant activity against Trogoderma granarium (khapra beetle) in compound treated wheat wafer disks assessed as antifeedant index by no-choice/two-choice assay
- Assay type: functional
Readings of Activity for the listed molecules
// return just the number, without any unit appended

- COc1cc(/C=C/CO)cc(OC)c1O[C@@H]1O[C@H](CO)[C@@H](O)[C@H](O)[C@H]1O [SYRINGIN]: 61.7
- C=C(C)C(=O)O[C@H]1CC(=C)[C@@H]2C[C@H](O)C(=C)[C@@H]2[C@H]2OC(=O)C(=C)[C@@H]21 [AGUERIN B]: 116.5
- C=C(CO)C(=O)O[C@H]1CC(=C)[C@@H]2C[C@H](O)[C@]3(CO3)[C@@H]2[C@H]2OC(=O)C(=C)[C@@H]21 [JANERIN]: 95

For the next question, use this molecule.
What does the record list as Activity for C=C(CO)C(=O)O[C@H]1CC(=C)[C@@H]2C[C@H](O)C(=C)[C@@H]2[C@H]2OC(=O)C(=C)[C@@H]21 [CYNAROPICRIN] ?
49.5

Data credit: ChEMBL document CHEMBL3045625
